# experiment_notes: Solvent solubility of perfluoroalkanamides
# Type: physicochemical
# Parameters: key: S: complete dissolve in the solvent at room temperature; P: precipitation in the solvent
# measurement_context: 3% w/w, @ RT
measured_property: Solubility in Ethanol

CCCCCCCCCCCCNC(=O)C(F)(F)C(F)(F)C(F)(F)C(F)(F)C(F)(F)C(F)(F)F; S
CCCCCCCCNC(=O)C(F)(F)C(F)(F)C(F)(F)C(F)(F)C(F)(F)C(F)(F)C(F)(F)C(F)(F)F; S
CCCCCCCCCCCCNC(=O)C(F)(F)C(F)(F)C(F)(F)C(F)(F)C(F)(F)C(F)(F)C(F)(F)C(F)(F)F; @ RT → P >
CCCCCCCCCCCCNC(=O)C(F)(F)C(F)(F)C(F)(F)C(F)(F)C(F)(F)C(F)(F)C(F)(F)F; @ RT → P >
